ASSAY_COMMENT: Pharmacokinetics of noribogaine in healthy volunteers, ascending single oral dose (plasma noribogaine and noribogaine glucuronide)
PROTOCOL_CONDITIONS: male, human, serum, oral, 10 mg
ASSAY_METRIC: Cmax (µg/mL)

{"columns": ["COMPOUND", "TEST_RESULT"],
 "data": [
  ["CCC1CC2CC3c4[nH]c5ccc(O)cc5c4CCN(C2)C13 (stereo not shown) [Noribogaine]", 0.0145]
]}

----------
ASSAY_COMMENT: Pharmacokinetics of noribogaine in healthy volunteers, ascending single oral dose (plasma noribogaine and noribogaine glucuronide)
PROTOCOL_CONDITIONS: male, human, serum, oral, 60 mg

{"columns": ["COMPOUND", "Cmax"],
 "data": [
  ["CCC1CC2CC3c4[nH]c5ccc(O)cc5c4CCN(C2)C13 (stereo not shown)", "116 ng/mL"]
]}

----------
ASSAY_COMMENT: Pharmacokinetics of noribogaine in healthy volunteers, ascending single oral dose (plasma noribogaine and noribogaine glucuronide)
PROTOCOL_CONDITIONS: male, human, plasma, oral
ASSAY_METRIC: Vd

{"columns": ["MOLECULE", "TEST_RESULT"],
 "data": [
  ["CCC1CC2CC3c4[nH]c5ccc(O)cc5c4CCN(C2)C13 (stereo not shown)", "1420 to 3090 L"]
]}

----------
ASSAY_COMMENT: Pharmacokinetics of noribogaine in healthy volunteers, ascending single oral dose (plasma noribogaine and noribogaine glucuronide)
PROTOCOL_CONDITIONS: male, human, plasma, po, 30 mg
ASSAY_METRIC: Cmax (ng/mL)

{"columns": ["COMPOUND", "VALUE_UNIT", "TEST_RESULT"],
 "data": [
  ["CCC1CC2CC3c4[nH]c5ccc(O)cc5c4CCN(C2)C13 (stereo not shown)", "ng/mL", 55.9]
]}

----------
ASSAY_COMMENT: Pharmacokinetics of noribogaine in healthy volunteers, ascending single oral dose (plasma noribogaine and noribogaine glucuronide)
PROTOCOL_CONDITIONS: male, human, plasma, po, 3 mg
ASSAY_METRIC: Vd/F (L)

{"columns": ["COMPOUND", "TEST_RESULT"],
 "data": [
  ["CCC1CC2CC3c4[nH]c5ccc(O)cc5c4CCN(C2)C13 (stereo not shown)", 2490]
]}

----------
ASSAY_COMMENT: Pharmacokinetics in opioid-dependent patients (Phase IB study)
Format: in vivo, human
PROTOCOL_CONDITIONS: human, serum, 60 mg, opioid-dependent patients, Cohort 1 (60 mg), mean ± SD; read-out: Vd/F
ASSAY_METRIC: Vd/F (L)

{"columns": ["COMPOUND", "ASSAY_METRIC", "VALUE_UNIT", "TEST_RESULT"],
 "data": [
  ["CCC1CC2CC3c4[nH]c5ccc(O)cc5c4CCN(C2)C13 (stereo not shown) [Noribogaine]", "Vd/F", "L", 1440]
]}

----------
ASSAY_COMMENT: Pharmacokinetics of noribogaine in healthy volunteers, ascending single oral dose (plasma noribogaine and noribogaine glucuronide)
PROTOCOL_CONDITIONS: male, human, serum, oral, 30 mg

{"columns": ["COMPOUND", "Cmax / µg/mL"],
 "data": [
  ["CCC1CC2CC3c4[nH]c5ccc(O)cc5c4CCN(C2)C13 (stereo not shown)", 0.0559]
]}

----------
ASSAY_COMMENT: Pharmacokinetics in opioid-dependent patients (Phase IB study)
Assay type: in vivo, human
PROTOCOL_CONDITIONS: human, serum, 60 mg, opioid-dependent patients, Cohort 1 (60 mg), range; read-out: Vd/F [range]

{"columns": ["COMPOUND", "Vd/F"],
 "data": [
  ["CCC1CC2CC3c4[nH]c5ccc(O)cc5c4CCN(C2)C13 (stereo not shown)", "620 to 2770 L"]
]}

----------
ASSAY_COMMENT: Pharmacokinetics in opioid-dependent patients (Phase IB study)
Format: in vivo, human
PROTOCOL_CONDITIONS: human, serum, 60 mg, opioid-dependent patients, Cohort 1 (60 mg), serum, mean ± SD; read-out: Cmax
ASSAY_METRIC: Cmax (ng/mL)

{"columns": ["COMPOUND", "ASSAY_METRIC", "TEST_RESULT"],
 "data": [
  ["CCC1CC2CC3c4[nH]c5ccc(O)cc5c4CCN(C2)C13 (stereo not shown)", "Cmax", 81.6]
]}

----------
ASSAY_COMMENT: Pharmacokinetics in opioid-dependent patients (Phase IB study)
Assay type: in vivo, human
PROTOCOL_CONDITIONS: human, serum, 120 mg, opioid-dependent patients, Cohort 2 (120 mg), mean ± SD; read-out: AUC(0-T)

{"columns": ["COMPOUND", "AUC(0-t) (ng·h/mL)"],
 "data": [
  ["CCC1CC2CC3c4[nH]c5ccc(O)cc5c4CCN(C2)C13 (stereo not shown) [Noribogaine]", 3230]
]}

----------
ASSAY_COMMENT: Pharmacokinetics of noribogaine in healthy volunteers, ascending single oral dose (plasma noribogaine and noribogaine glucuronide)
PROTOCOL_CONDITIONS: male, human, plasma, po, 3 mg

{"columns": ["COMPOUND", "VALUE_UNIT", "half-life"],
 "data": [
  ["CCC1CC2CC3c4[nH]c5ccc(O)cc5c4CCN(C2)C13 (stereo not shown) [Noribogaine]", "h", 40.9]
]}

----------
ASSAY_COMMENT: Pharmacokinetics in opioid-dependent patients (Phase IB study)
Assay type: in vivo, human
PROTOCOL_CONDITIONS: human, serum, 180 mg, opioid-dependent patients, Cohort 3 (180 mg), range; read-out: Tmax [range]
ASSAY_METRIC: Tmax

{"columns": ["COMPOUND", "TEST_RESULT"],
 "data": [
  ["CCC1CC2CC3c4[nH]c5ccc(O)cc5c4CCN(C2)C13 (stereo not shown)", "3 to 8 h"]
]}

----------
ASSAY_COMMENT: Pharmacokinetics in opioid-dependent patients (Phase IB study)
Format: in vivo, human
PROTOCOL_CONDITIONS: human, serum, 60 mg, opioid-dependent patients, Cohort 1 (60 mg), mean ± SD; read-out: AUC(0-T)
ASSAY_METRIC: AUC(0-t)

{"columns": ["COMPOUND", "TEST_RESULT"],
 "data": [
  ["CCC1CC2CC3c4[nH]c5ccc(O)cc5c4CCN(C2)C13 (stereo not shown)", "2020 ng·h/mL"]
]}

----------
ASSAY_COMMENT: Pharmacokinetics of noribogaine in healthy volunteers, ascending single oral dose (plasma noribogaine and noribogaine glucuronide)
PROTOCOL_CONDITIONS: male, human, plasma, po, 60 mg
ASSAY_METRIC: half-life (h)

{"columns": ["MOLECULE", "TEST_RESULT"],
 "data": [
  ["CCC1CC2CC3c4[nH]c5ccc(O)cc5c4CCN(C2)C13 (stereo not shown) [Noribogaine]", 29.1]
]}

----------
ASSAY_COMMENT: Pharmacokinetics of noribogaine in healthy volunteers, ascending single oral dose (plasma noribogaine and noribogaine glucuronide)
PROTOCOL_CONDITIONS: male, human, plasma, po, 60 mg
ASSAY_METRIC: AUC(0-t) (ng·h/mL)

{"columns": ["COMPOUND", "ASSAY_METRIC", "TEST_RESULT"],
 "data": [
  ["CCC1CC2CC3c4[nH]c5ccc(O)cc5c4CCN(C2)C13 (stereo not shown)", "AUC(0-t)", 1940]
]}

----------
ASSAY_COMMENT: Pharmacokinetics in opioid-dependent patients (Phase IB study)
Type: in vivo, human
PROTOCOL_CONDITIONS: human, serum, 120 mg, opioid-dependent patients, Cohort 2 (120 mg), mean ± SD; read-out: Tmax
ASSAY_METRIC: Tmax (h)

{"columns": ["COMPOUND", "ASSAY_METRIC", "TEST_RESULT"],
 "data": [
  ["CCC1CC2CC3c4[nH]c5ccc(O)cc5c4CCN(C2)C13 (stereo not shown)", "Tmax", 2.99]
]}

----------
ASSAY_COMMENT: Pharmacokinetics of noribogaine in healthy volunteers, ascending single oral dose (plasma noribogaine and noribogaine glucuronide)
PROTOCOL_CONDITIONS: male, human, plasma, po, 30 mg
ASSAY_METRIC: half-life (h)

{"columns": ["COMPOUND", "VALUE_UNIT", "TEST_RESULT"],
 "data": [
  ["CCC1CC2CC3c4[nH]c5ccc(O)cc5c4CCN(C2)C13 (stereo not shown) [Noribogaine]", "h", 27.6]
]}

----------
ASSAY_COMMENT: Pharmacokinetics in opioid-dependent patients (Phase IB study)
Format: in vivo, human
PROTOCOL_CONDITIONS: human, serum, 180 mg, opioid-dependent patients, Cohort 3 (180 mg), mean ± SD; read-out: AUC(0-T)

{"columns": ["COMPOUND", "AUC(0-t)"],
 "data": [
  ["CCC1CC2CC3c4[nH]c5ccc(O)cc5c4CCN(C2)C13 (stereo not shown)", "6520 ng·h/mL"]
]}

----------
ASSAY_COMMENT: Pharmacokinetics in opioid-dependent patients (Phase IB study)
Format: in vivo, human
PROTOCOL_CONDITIONS: human, serum, 180 mg, opioid-dependent patients, Cohort 3 (180 mg), range; read-out: AUC(0-T) [range]

{"columns": ["MOLECULE", "AUC(0-t)"],
 "data": [
  ["CCC1CC2CC3c4[nH]c5ccc(O)cc5c4CCN(C2)C13 (stereo not shown)", "3720 to 10400 ng·h/mL"]
]}
